Attribute: Activity
test system: U2OS; assay: Modulation of ATF6 activity in human U2OS cells at 10 uM in presence of ER stress inducer thapsigargin (Tg) measured by TRE-luciferase reporter assay relative to control; assay type: cell-based
Quick note: give the figure in %, leave out the unit.

Using U2OS as the test system, report measured Activity of Cc1nn(C(C)c2ccc(C(F)(F)F)cc2C(F)(F)F)cc1C#Cc1nnc(-c2ccccn2)s1 (stereo in doubt; 2-23) . 50

###

tested on: U2OS; test: Modulation of ATF6 activity in human U2OS cells at 10 uM in presence of ER stress inducer thapsigargin (Tg) measured by TRE-luciferase reporter assay relative to control; type: cell-based
Recorded Metric: Activity (%)
Quick note: give the figure in %, leave out the unit.

Using U2OS as the test system, report measured Activity of CC(c1ccc(C(F)(F)F)cc1C(F)(F)F)n1cc(/C=C\c2nnc(-c3ccccn3)s2)cn1 (stereo in doubt; 2-8) . 50

Using U2OS as the test system, report measured Activity of CC(c1ccc(C(F)(F)F)cc1C(F)(F)F)n1cc(C#Cc2nnc(-c3cnccn3)s2)cn1 (stereo in doubt; 2-10) . 75

Using U2OS as the test system, report measured Activity of O=C(Nc1cnn(Cc2ccc(C(F)(F)F)cc2)c1)c1cc(-c2ccco2)on1 . 75

Using U2OS as the test system, report measured Activity of CC(c1ccc(C(F)(F)F)cc1C(F)(F)F)n1cc(/C=C\c2nnc(-c3ccccn3)s2)cn1 (stereo in doubt; 2-6) . 50

Using U2OS as the test system, report measured Activity of CC(c1ccc(C(F)(F)F)cc1C(F)(F)F)n1cc(/C=C\c2nnc(-c3ccccn3)s2)cn1 (stereo in doubt; 2-7) . 75

###

tested on: U2OS; experiment: Modulation of ATF6 activity in human U2OS cells at 10 uM in presence of ER stress inducer thapsigargin (Tg) measured by TRE-luciferase reporter assay relative to control; type: cell-based
Recorded Metric: Activity

Field: example entries. Status: answers known.
Cc1nn(C(C)c2ccc(C(F)(F)F)cc2C(F)(F)F)cc1C#Cc1nnc(-c2ccccn2)s1 (stereo in doubt; 2-24) :: < 50%
CC(c1ccc(C(F)(F)F)cc1C(F)(F)F)n1cc(C#Cc2nnc(-c3ccccn3)s2)cn1 (stereo in doubt; 2-1) :: < 50%
CC(c1ccc(C(F)(F)F)cc1C(F)(F)F)n1cc(C#Cc2nnc(-c3cnccn3)s2)cn1 (stereo in doubt; 2-21) :: 75%
CC(c1ccc(C(F)(F)F)cc1C(F)(F)F)n1cc(CCc2nnc(-c3ccccn3)s2)cn1 (configuration not stated) :: < 50%

Using U2OS as the test system, report measured Activity of CC(c1ccc(C(F)(F)F)cc1C(F)(F)F)n1cc(C#Cc2nnc(-c3cnccn3)s2)cn1 (stereo in doubt; 2-22) . 75%

Using U2OS as the test system, report measured Activity of Cc1nn(C(C)c2ccc(C(F)(F)F)cc2C(F)(F)F)cc1C#Cc1nnc(-c2ccccn2)s1 (stereo in doubt; 2-11) . 50%

Using U2OS as the test system, report measured Activity of FC(F)(F)c1ccc(Cn2cc(C#Cc3nnc(-c4ccccn4)s3)cn2)c(C(F)(F)F)c1 . 75%

###

test system: U2OS; test: Modulation of ATF6 activity in human U2OS cells at 10 uM in presence of ER stress inducer thapsigargin (Tg) measured by TRE-luciferase reporter assay relative to control; assay type: cell-based
Attribute: Activity

Supply Activity value. Item: CC(c1ccc(C(F)(F)F)cc1C(F)(F)F)n1cc(C#Cc2nnc(-c3ccccn3)s2)cn1 (stereo in doubt; 2-2) < 50%

Supply Activity value. Item: O=C(Nc1cnn(Cc2ccc(C(F)(F)F)cc2C(F)(F)F)c1)c1cc(-c2ccco2)on1 < 50%

Supply Activity value. Item: CC(c1ccc(C(F)(F)F)cc1C(F)(F)F)n1cc(/C=C/c2nnc(-c3ccccn3)s2)cn1 (stereo not drawn) < 50%
